method.notes: Volume of distribution at steady state in rat at 3 mg/kg, iv
Format: ADME, organism-based
Parameters: route intravenous, dose 3 mg/kg
condition.details: in vivo, read-out: Vdss
attribute.measured: Vd (L/kg)
Please reply with the bare figure in L/kg and do not write the unit itself.

Note Vd for the molecule shown: Cn1c(=O)c2c(nc(N3CCC[C@@H](N)C3)n2Cc2ccccc2Cl)c2ccc(C(=O)O)cc21 4.5

* * *

method.notes: Drug metabolism in human liver S9 fraction assessed as compound remaining at 1 uM after 30 mins by HPLC/MS/MS analysis relative to control
Type: ADME, subcellular
condition.details: read-out: Stability
Lab note: anything with remaining at 0.5 h, 1 µM below 10% is marked Y; values at 10% or higher are marked N.

chemical.structure: COC(=O)c1ccc2c(c1)c1nc(N3CCC[C@@H](N)C3)n(Cc3ccccc3Cl)c1c(=O)n2C.Cl
qualitative.label: N
--
chemical.structure: Cl.Cn1c(=O)c2c(nc(N3CCC[C@@H](N)C3)n2Cc2ccccc2Cl)c2cc(C(=O)OCCN3CCOCC3)ccc21
qualitative.label: N

Please indicate whether the reported remaining at 0.5 h, 1 µM of Cc1oc(=O)oc1COC(=O)c1ccc2c3nc(N4CCC[C@@H](N)C4)n(Cc4cc(F)ccc4Cl)c3c(=O)n(C)c2c1.Cl is strictly below 10%. N

Please indicate whether the reported remaining at 0.5 h, 1 µM of Cl.Cn1c(=O)c2c(nc(N3CCC[C@@H](N)C3)n2Cc2ccccc2Cl)c2cc(C(=O)OCOC(=O)C(C)(C)C)ccc21 is strictly below 10%. Y

Please indicate whether the reported remaining at 0.5 h, 1 µM of Cc1oc(=O)oc1COC(=O)c1ccc2c3nc(N4CCC[C@@H](N)C4)n(Cc4ccccc4Cl)c3c(=O)n(C)c2c1.Cl is strictly below 10%. N

Please indicate whether the reported remaining at 0.5 h, 1 µM of CN(C)CCOC(=O)c1ccc2c(c1)c1nc(N3CCC[C@@H](N)C3)n(Cc3ccccc3Cl)c1c(=O)n2C.Cl is strictly below 10%. N

Please indicate whether the reported remaining at 0.5 h, 1 µM of C[C@@H]1CN(CCOC(=O)c2ccc3c(c2)c2nc(N4CCC[C@@H](N)C4)n(Cc4ccccc4Cl)c2c(=O)n3C)C[C@H](C)O1.Cl is strictly below 10%. N

Please indicate whether the reported remaining at 0.5 h, 1 µM of Cl.Cn1c(=O)c2c(nc(N3CCC[C@@H](N)C3)n2Cc2ccccc2Cl)c2cc(C(=O)OCCCN3CCOCC3)ccc21 is strictly below 10%. N

Please indicate whether the reported remaining at 0.5 h, 1 µM of Cc1oc(=O)oc1COC(=O)c1ccc2c(c1)c1nc(N3CCC[C@@H](N)C3)n(Cc3ccccc3Cl)c1c(=O)n2C.Cl is strictly below 10%. Y

Please indicate whether the reported remaining at 0.5 h, 1 µM of COC(=O)c1ccc2c3nc(N4CCC[C@@H](N)C4)n(Cc4ccccc4Cl)c3c(=O)n(C)c2c1.Cl is strictly below 10%. N

Please indicate whether the reported remaining at 0.5 h, 1 µM of CN(C)CCCOC(=O)c1ccc2c(c1)c1nc(N3CCC[C@@H](N)C3)n(Cc3ccccc3Cl)c1c(=O)n2C.Cl is strictly below 10%. N

Please indicate whether the reported remaining at 0.5 h, 1 µM of Cc1oc(=O)oc1COC(=O)c1ccc2c(c1)c1nc(N3CCC[C@@H](N)C3)n(Cc3cc(F)ccc3Cl)c1c(=O)n2C.Cl is strictly below 10%. Y
